// data source = patent US12410153B2

Assay: Repeated once-daily oral dosing with food (Days 1-7) in healthy subjects, PK and PD
Type: in vivo, human
Conditions: both sexes, human, plasma, oral, 20 mg, young subjects, 20 mg, Day 7; read-out: AUClast, Mean (SD)
Endpoint: AUC(0-t) (ng·h/mL)
Numbers only, in ng·h/mL.

According to the records, this compound Cc1ccc(COC(=O)N2CC[C@H](CNc3ncccn3)[C@H](F)C2)cc1 [Form II] displays AUC(0-t) of 10100

* * *

Assay: Human pharmacokinetic study, single ascending oral doses
Assay type: in vivo
Details: male, human, plasma, oral, across all fasted dose levels; read-out: mean Tmax
Endpoint: Tmax

According to the records, this compound Cc1ccc(COC(=O)N2CC[C@H](CNc3ncccn3)[C@H](F)C2)cc1 [Form II] displays Tmax of ≤ 1 h
